Recorded boiling point, one value per entry.

>  <compound>
Cc1cccc(Cl)c1N

>  <boiling point (°C)>
215

$$$$
>  <compound>
COC(=O)c1cccnc1

>  <boiling point (°C)>
204

$$$$
>  <compound>
O=C1CCCCCO1

>  <boiling point (°C)>
215

$$$$
>  <compound>
CC1(O)CCCC1

>  <boiling point (°C)>
136

$$$$
>  <compound>
CC(C)CCC[C@H](C)O

>  <boiling point (°C)>
174

$$$$
>  <compound>
Cc1ccccc1N

>  <boiling point (°C)>
200

$$$$
>  <compound>
CC/C=C\CCCC

>  <boiling point (°C)>
123

$$$$
>  <compound>
CCCCOCc1ccccc1

>  <boiling point (°C)>
223

$$$$
>  <compound>
CCCCCCCl

>  <boiling point (°C)>
135

$$$$
>  <compound>
O=C(Br)CBr

>  <boiling point (°C)>
148

$$$$
>  <compound>
CC1CCCCC1=O (configuration not stated)

>  <boiling point (°C)>
162

$$$$
>  <compound>
C1CC1

>  <boiling point (°C)>
-32.8

$$$$
>  <compound>
c1ccc2c(c1)-c1cccc3cccc-2c13

>  <boiling point (°C)>
384

$$$$
>  <compound>
NCCCCCCCN

>  <boiling point (°C)>
224

$$$$
>  <compound>
Cc1cccc(F)c1

>  <boiling point (°C)>
115

$$$$
>  <compound>
CCCC(=O)OCC(C)C

>  <boiling point (°C)>
157

$$$$
>  <compound>
C

>  <boiling point (°C)>
-162

$$$$
>  <compound>
COc1ccc(C)c(C)c1

>  <boiling point (°C)>
202

$$$$
>  <compound>
C1COCCO1

>  <boiling point (°C)>
102

$$$$
>  <compound>
CC(C)CCCC(C)CCO (configuration not stated)

>  <boiling point (°C)>
212

$$$$
>  <compound>
CCOc1ccccc1Cl

>  <boiling point (°C)>
210

$$$$
>  <compound>
CCCCCCCCCc1cccc2ccccc12

>  <boiling point (°C)>
366

$$$$
>  <compound>
CCCCCC(=O)CCCCC

>  <boiling point (°C)>
228

$$$$
>  <compound>
CC(C)C(C)CC(C)(C)C (configuration not stated)

>  <boiling point (°C)>
148

$$$$
>  <compound>
CCCCc1ccc(N)cc1

>  <boiling point (°C)>
261

$$$$
>  <compound>
C1=CC2C3C=CC(C3)C2C1 (configuration not stated)

>  <boiling point (°C)>
170

$$$$
>  <compound>
CC(CCl)[N+](=O)[O-] (configuration not stated)

>  <boiling point (°C)>
172

$$$$
>  <compound>
CCN(CC)CCCO

>  <boiling point (°C)>
190

$$$$
>  <compound>
COC(C)(C)OC

>  <boiling point (°C)>
83

$$$$
>  <compound>
C=CCc1ccc(O)cc1

>  <boiling point (°C)>
238

$$$$
>  <compound>
COc1ccc(C)cc1C

>  <boiling point (°C)>
192

$$$$
>  <compound>
Cc1ccc(Br)s1

>  <boiling point (°C)>
178

$$$$
>  <compound>
C=C[N+](=O)[O-]

>  <boiling point (°C)>
98.5

$$$$
>  <compound>
CCC(CC)c1ccccc1

>  <boiling point (°C)>
188

$$$$
>  <compound>
Cc1cccc(I)c1

>  <boiling point (°C)>
213

$$$$
>  <compound>
CC(C)(C)c1ccccn1

>  <boiling point (°C)>
170

$$$$
>  <compound>
C#CCCCCCC

>  <boiling point (°C)>
126

$$$$
>  <compound>
CCOC(C)(OCC)OCC

>  <boiling point (°C)>
145

$$$$
>  <compound>
C/C=C\CC(C)(C)C

>  <boiling point (°C)>
107

$$$$
>  <compound>
CCNCCN

>  <boiling point (°C)>
129

$$$$
>  <compound>
Cc1c(C)c(C)c(C)c(C)c1C

>  <boiling point (°C)>
263

$$$$
>  <compound>
COC(=O)CC#N

>  <boiling point (°C)>
200

$$$$
>  <compound>
CC(C)CN(CCO)CC(C)C

>  <boiling point (°C)>
214

$$$$
>  <compound>
OCC#CCO

>  <boiling point (°C)>
238

$$$$
>  <compound>
CCCC(O)C(CC)CO (configuration not stated)

>  <boiling point (°C)>
244

$$$$
>  <compound>
CC1=NCCO1

>  <boiling point (°C)>
111

$$$$
>  <compound>
C/C=C/CC(C)C

>  <boiling point (°C)>
88.1

$$$$
>  <compound>
FC(F)OC(F)C(F)(F)F (configuration not stated)

>  <boiling point (°C)>
23.5

$$$$
>  <compound>
CCCCOC(=O)C(Cl)Cl

>  <boiling point (°C)>
194

$$$$
>  <compound>
Cc1ccc(O)c(C(C)(C)C)c1

>  <boiling point (°C)>
237

$$$$
>  <compound>
O=C1CCO1

>  <boiling point (°C)>
162

$$$$
>  <compound>
SCCCS

>  <boiling point (°C)>
173

$$$$
>  <compound>
CN(C)C(=S)N(C)C

>  <boiling point (°C)>
245

$$$$
>  <compound>
CCCC(=O)C(C)CC (configuration not stated)

>  <boiling point (°C)>
154

$$$$
>  <compound>
Clc1ccc(Cl)c(I)c1

>  <boiling point (°C)>
253

$$$$
>  <compound>
Cc1ccc(F)cc1[N+](=O)[O-]

>  <boiling point (°C)>
213

$$$$
>  <compound>
CC(C)OC(=O)c1ccccc1

>  <boiling point (°C)>
216

$$$$
>  <compound>
CCc1ccccc1CC

>  <boiling point (°C)>
184

$$$$
>  <compound>
c1ccc2c(c1)Cc1ccccc1O2

>  <boiling point (°C)>
311

$$$$
>  <compound>
CCOC(=O)C(Cl)Cl

>  <boiling point (°C)>
155

$$$$
>  <compound>
C1OCOCO1

>  <boiling point (°C)>
114

$$$$
>  <compound>
CC(Cl)C[N+](=O)[O-] (configuration not stated)

>  <boiling point (°C)>
172

$$$$
>  <compound>
Cc1ccno1

>  <boiling point (°C)>
122

$$$$
>  <compound>
FC(OC(F)(F)C(F)(F)C(F)(F)F)C(F)(F)F (configuration not stated)

>  <boiling point (°C)>
41

$$$$
>  <compound>
OCCNCCO

>  <boiling point (°C)>
269

$$$$
>  <compound>
FC(Cl)Br (configuration not stated)

>  <boiling point (°C)>
36

$$$$
>  <compound>
CCOc1cccc([N+](=O)[O-])c1

>  <boiling point (°C)>
264

$$$$
>  <compound>
CCCCOC(=O)C(Cl)(Cl)Cl

>  <boiling point (°C)>
204

$$$$
>  <compound>
CC(Oc1ccccc1)C(=O)Cl (configuration not stated)

>  <boiling point (°C)>
147

$$$$
>  <compound>
CC(N)CN (configuration not stated)

>  <boiling point (°C)>
120

$$$$
>  <compound>
O=C(Cl)OCc1ccccc1

>  <boiling point (°C)>
152

$$$$
>  <compound>
CC(C)C1CCCC1

>  <boiling point (°C)>
126

$$$$
>  <compound>
O=Cc1ccc([N+](=O)[O-])o1

>  <boiling point (°C)>
228

$$$$
>  <compound>
CCCC(C)C(C)(C)CC (configuration not stated)

>  <boiling point (°C)>
162

$$$$
>  <compound>
C=C(CC(=O)OC)C(=O)OC

>  <boiling point (°C)>
208

$$$$
>  <compound>
FC(F)(Cl)CBr

>  <boiling point (°C)>
68.4

$$$$
>  <compound>
CC(C)CCCCC(C)C

>  <boiling point (°C)>
160

$$$$

---

Recorded melting point, one value per entry.

>  <compound>
FC1(F)C(Cl)=C(Cl)C(F)(F)C1(F)F

>  <melting point>
-106 °C

$$$$
>  <compound>
CCC/C=C/CCC

>  <melting point>
-104 °C

$$$$
>  <compound>
BrCc1ccc(Br)cc1

>  <melting point>
63 °C

$$$$
>  <compound>
Cc1cccc2ccc(Cl)nc12

>  <melting point>
61 °C

$$$$
>  <compound>
O=C1Cc2cccc3cccc1c23

>  <melting point>
121 °C

$$$$
>  <compound>
CC(C)(C)NCCO

>  <melting point>
44 °C

$$$$
>  <compound>
FC(Cl)(Cl)Br

>  <melting point>
-106 °C

$$$$
>  <compound>
BrCCCCCCBr

>  <melting point>
-2.3 °C

$$$$
>  <compound>
Fc1c(F)c(F)c2c(F)c(F)c(F)c(F)c2c1F

>  <melting point>
87.5 °C

$$$$
>  <compound>
COC(=O)[C@@H]1CCCN1C(=O)COC(=O)c1ccccc1

>  <melting point>
72.5 °C

$$$$
>  <compound>
CC1COc2ccccc2N1C(=O)C(Cl)Cl (centres undefined)

>  <melting point>
108 °C

$$$$
>  <compound>
O=C(O)C(F)(F)C(F)(F)C(F)(F)C(F)(F)C(F)(F)C(F)(F)C(F)(F)C(F)(F)C(F)(F)C(F)(F)C(F)(F)F

>  <melting point>
108 °C

$$$$
>  <compound>
CC(=O)Nc1nc(=O)c2ncn(COCCOC(C)=O)c2[nH]1

>  <melting point>
204 °C

$$$$
>  <compound>
CC(C)C1=CC2=CC[C@@H]3[C@](C)(CCC[C@@]3(C)C(=O)O)[C@H]2CC1

>  <melting point>
174 °C

$$$$
>  <compound>
Cc1ncc[nH]1

>  <melting point>
144 °C

$$$$
>  <compound>
CC1CCCCC1NC(=O)Nc1ccccc1 (centres undefined)

>  <melting point>
136 °C

$$$$
>  <compound>
Cc1cc2c(cc1C)C(=O)c1ccccc1C2=O

>  <melting point>
211 °C

$$$$
>  <compound>
COc1ccccc1OC(=O)c1ccccc1

>  <melting point>
57.5 °C

$$$$
>  <compound>
CC(C)(N)CO

>  <melting point>
25.5 °C

$$$$
>  <compound>
O=C(O)c1c(Cl)cc(Cl)cc1Cl

>  <melting point>
162 °C

$$$$
>  <compound>
Nc1c(Cl)cccc1C(=O)O

>  <melting point>
190 °C

$$$$
>  <compound>
COc1ccc2c3c1O[C@H]1[C@@H](O)CC=C4[C@@H](C2)N(C)CC[C@]431

>  <melting point>
128 °C

$$$$
>  <compound>
C1OCC2(CO1)COCOC2

>  <melting point>
48.3 °C

$$$$
>  <compound>
NC(=S)NS(=O)(=O)c1ccc(N)cc1

>  <melting point>
182 °C

$$$$
>  <compound>
Nc1c(Cl)c(Cl)nc(C(=O)O)c1Cl

>  <melting point>
218 °C

$$$$
>  <compound>
O=C(O)c1ccccc1SSc1ccccc1C(=O)O

>  <melting point>
288 °C

$$$$
>  <compound>
Oc1cc(F)cc(F)c1F

>  <melting point>
29 °C

$$$$
>  <compound>
F[Si](F)(F)c1ccccc1

>  <melting point>
-18 °C

$$$$
>  <compound>
O=C(O)CNC(=O)c1ccccc1O

>  <melting point>
168 °C

$$$$
>  <compound>
Cc1cc(N(C)C)ccc1N=Nc1ccccc1

>  <melting point>
68 °C

$$$$
>  <compound>
O=C1OC(c2ccc(O)cc2)(c2ccc(O)cc2)c2ccccc21

>  <melting point>
262 °C

$$$$
>  <compound>
O=C1OC(c2ccccc2)(c2ccccc2)c2ccccc21

>  <melting point>
120 °C

$$$$
>  <compound>
O=C(O)c1ccccc1C(=O)Nc1ccc(S(=O)(=O)Nc2nccs2)cc1

>  <melting point>
273 °C

$$$$
>  <compound>
CB(C)C

>  <melting point>
-162 °C

$$$$
>  <compound>
CCCCCCCCCCCCCCCCCCCCBr

>  <melting point>
37.5 °C

$$$$
>  <compound>
CCNC(=O)COC(=O)c1ccccc1

>  <melting point>
106 °C

$$$$
>  <compound>
O=C(NC(=O)c1c(F)cccc1F)Nc1cc(Cl)c(OC(F)(F)C(F)F)c(Cl)c1

>  <melting point>
204 °C

$$$$
>  <compound>
CCOC(=O)c1cncn1C(C)c1ccccc1 (centres undefined)

>  <melting point>
67 °C

$$$$
>  <compound>
CCCCOCCO

>  <melting point>
-74.8 °C

$$$$
>  <compound>
CCCCC1(CC)C(=O)NC(=O)NC1=O

>  <melting point>
128 °C

$$$$
>  <compound>
CN1CSCSC1

>  <melting point>
65 °C

$$$$
>  <compound>
Cc1ccc(C(=O)NS(=O)(=O)c2ccc(N)cc2)cc1C

>  <melting point>
222 °C

$$$$
>  <compound>
CC12CCC(CC1=NO)C2(C)C (centres undefined)

>  <melting point>
118 °C

$$$$
>  <compound>
ClC(Cl)=C(c1ccc(Cl)cc1)c1ccc(Cl)cc1

>  <melting point>
89 °C

$$$$
>  <compound>
ClCC(Cl)C(Cl)=C(Cl)C(Cl)CCl (centres undefined)

>  <melting point>
58.5 °C

$$$$
>  <compound>
CCOc1cc(NC(C)=O)ccc1C(=O)OC

>  <melting point>
148 °C

$$$$
>  <compound>
CCCCCCCCCCCC(O)CC (centres undefined)

>  <melting point>
31.5 °C

$$$$
>  <compound>
Oc1ccccc1Br

>  <melting point>
5.6 °C

$$$$
>  <compound>
CC1=C(O)C(=O)[C@@H]2O[C@@H]2C1=O

>  <melting point>
127 °C

$$$$
>  <compound>
CCCCCCCCCCCCCCCC(=O)NCCO

>  <melting point>
98.5 °C

$$$$
>  <compound>
O=c1cc(O)cc[nH]1

>  <melting point>
278 °C

$$$$
>  <compound>
Cc1cc(C)c(C=O)c(C)c1

>  <melting point>
14 °C

$$$$
>  <compound>
COc1cc2nc(N3CCN(C(=O)c4ccco4)CC3)nc(N)c2cc1OC

>  <melting point>
279 °C

$$$$
>  <compound>
CC1CC(OC(=O)C(O)c2ccccc2)CC(C)(C)C1 (centres undefined)

>  <melting point>
56 °C

$$$$
>  <compound>
S=C([S-])[S-]

>  <melting point>
-30 °C

$$$$
>  <compound>
CN(C)C(=O)Nc1ccc(Oc2ccc(Cl)cc2)cc1

>  <melting point>
151 °C

$$$$
>  <compound>
O=c1oc2ccccc2c(O)c1C1CCCc2ccccc21 (centres undefined)

>  <melting point>
172 °C

$$$$
>  <compound>
Cc1nc2ccccc2nc1C

>  <melting point>
105 °C

$$$$
>  <compound>
C[C@@H]1O[C@@H]1P(=O)(O)O

>  <melting point>
94 °C

$$$$
